- System: Cryptococcus neoformans ISM
- assayOverview: In vivo oral antimycotic effectiveness, intracranial cryptococcosis
- Design: species or system mice (Albino Charles River, CD1 strain)
- conditionsUsed: 336 h, mice, oral at 0, 4, 24, 48 hours after intracranial infection, read-out: PD50 (medium protective dose) at the 14th day
Documented ED50 across a set of compounds
Give the quantity in mg/kg, number only.

# annotated cases, reported ED50 shown
{"columns": ["compound", "systemTested", "ED50 / mg/kg"],
 "data": [
  ["C[C@@H](COC(F)(F)C(F)F)[C@](O)(Cn1cncn1)c1ccc(Cl)cc1Cl", "Cryptococcus neoformans ISM", 12.5],
  ["OC(Cn1cncn1)(Cn1cncn1)c1ccc(F)cc1F [Fluconazole, reference compound]", "Cryptococcus neoformans ISM", 22.3]
]}

Continue with the next compound.
Req: In one line, give reported ED50 of the entry `C[C@@H](COC(F)(F)C(F)F)[C@](O)(Cn1cncn1)c1ccc(F)cc1F` .
Resp: 14.6
